List of 8OG:A repair function score values.
B1: library; numbered along this chain (parent)
chain: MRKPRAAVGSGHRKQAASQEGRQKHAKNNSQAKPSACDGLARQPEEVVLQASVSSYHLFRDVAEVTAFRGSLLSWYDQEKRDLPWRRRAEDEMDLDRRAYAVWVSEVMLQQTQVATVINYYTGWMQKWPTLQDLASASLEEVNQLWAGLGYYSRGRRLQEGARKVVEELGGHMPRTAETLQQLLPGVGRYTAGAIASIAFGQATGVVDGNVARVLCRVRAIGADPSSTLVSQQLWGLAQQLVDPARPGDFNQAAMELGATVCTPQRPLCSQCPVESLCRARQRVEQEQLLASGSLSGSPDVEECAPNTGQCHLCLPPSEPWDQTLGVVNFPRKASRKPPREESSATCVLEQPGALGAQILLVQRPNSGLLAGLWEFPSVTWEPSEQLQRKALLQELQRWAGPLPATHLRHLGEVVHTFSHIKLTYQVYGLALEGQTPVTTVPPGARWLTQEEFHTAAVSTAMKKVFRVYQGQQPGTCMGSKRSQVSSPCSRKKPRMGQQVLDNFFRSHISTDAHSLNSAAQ

Variants of: B1
Assay: 8OG:A repair function score (normalized; synonymous = 0, nonsense = -1) (normalized log-likelihood score); higher = more repair activity (WT-like);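 note: cells sorted at 72 h after reporter transfection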
Conditions: with 8OG:A DNA repair reporter (GFP) in HEK-293 MUTYH KO cells
observable: 8OG:A repair function score

mutantLabel: G70D
reportedValue: -0.369
--
mutantLabel: Q43L
reportedValue: 0.0948
--
mutantLabel: M125F
reportedValue: -0.273
--
mutantLabel: K333A
reportedValue: 0.0254
--
mutantLabel: D94M
reportedValue: -0.104
--
mutantLabel: P34W
reportedValue: 0.133
--
mutantLabel: S54C
reportedValue: 0.00525
--
mutantLabel: M496C
reportedValue: -0.00499
--
mutantLabel: Q498R
reportedValue: 0.0169
--
mutantLabel: L72A
reportedValue: -0.207
--
mutantLabel: C314W
reportedValue: -0.679
--
mutantLabel: W447R
reportedValue: -0.794
--
mutantLabel: E375V
reportedValue: -0.423
--
mutantLabel: I509S
reportedValue: 0.0252
--
mutantLabel: L432P
reportedValue: -0.514
--
mutantLabel: R60K
reportedValue: -0.0179
--
mutantLabel: N143L
reportedValue: -0.0917
--
mutantLabel: P299R
reportedValue: -0.000753
--
mutantLabel: F250M
reportedValue: -0.607
--
mutantLabel: A253W
reportedValue: -0.975
--
mutantLabel: C216V
reportedValue: -0.649
--
mutantLabel: P244C
reportedValue: -0.39
